src = patent US20120101032A1

- Tested on: hepatitis C replicon
- METHOD_NOTES: hepatitis C replicon EC50 assay
- Format: cell-based
- CONDITION_CONTEXT: Hepatitis C virus; hepatitis C replicon; read-out: EC50

SMILES_STR	EC50
CC(C)n1c(O[C@@H]2C[C@H]3C(=O)N[C@]4(C(=O)NS(=O)(=O)N(C)C)C[C@H]4/C=C\CCCCC[C@H](NC(=O)OC(C)(C)C)C(=O)N3C2)nc2c(-c3nc(-c4ccc(F)c(C(F)(F)F)c4)cs3)cccc21	> 100 nM
COc1cccc(-c2csc(-c3cccc4c3nc(O[C@@H]3C[C@H]5C(=O)N[C@]6(C(=O)NS(=O)(=O)N(C)C)C[C@H]6/C=C\CCCCC[C@H](NC(=O)OC(C)(C)C)C(=O)N5C3)n4C(C)C)n2)c1	10 to 100 nM
CC(C)n1c(O[C@@H]2C[C@H]3C(=O)N[C@]4(C(=O)NS(=O)(=O)C5(C)CC5)C[C@H]4/C=C\CCCCC[C@H](NC(=O)OC(C)(C)C)C(=O)N3C2)nc2c(-c3nc(Cc4cccc(OC(F)(F)F)c4)cs3)cccc21	10 to 100 nM
Cc1ccc(Cc2csc(-c3cccc4c3nc(O[C@@H]3C[C@H]5C(=O)N[C@]6(C(=O)NS(=O)(=O)N(C)C)C[C@H]6/C=C\CCCCC[C@H](NC(=O)OC(C)(C)C)C(=O)N5C3)n4C(C)C)n2)cc1	< 10 nM

* * *

The entries below are paired with their reported EC50.
- Test system: hepatitis C replicon
- METHOD_NOTES: hepatitis C replicon EC50 assay
- Type: cell-based
- CONDITION_CONTEXT: Hepatitis C virus; hepatitis C replicon; read-out: EC50

SMILES_STR	EC50
CC(C)n1c(O[C@@H]2C[C@H]3C(=O)N[C@]4(C(=O)NS(=O)(=O)N(C)C)C[C@H]4/C=C\CCCCC[C@H](NC(=O)OC(C)(C)C)C(=O)N3C2)nc2c(-c3nc(Cc4ccccc4F)cs3)cccc21	< 0.01 µM
CC(C)n1c(O[C@@H]2C[C@H]3C(=O)N[C@]4(C(=O)NS(=O)(=O)N(C)C)C[C@H]4/C=C\CCCCC[C@H](NC(=O)OC(C)(C)C)C(=O)N3C2)nc2c(-c3csc(N4CCCC4)n3)cccc21	< 0.01 µM
CC(C)n1c(O[C@@H]2C[C@H]3C(=O)N[C@]4(C(=O)NS(=O)(=O)N(C)C)C[C@H]4/C=C\CCCCC[C@H](NC(=O)OC(C)(C)C)C(=O)N3C2)nc2c(-c3nc(Cc4cccc(Br)c4)cs3)cccc21	0.01 to 0.1 µM
CC(C)n1c(O[C@@H]2C[C@H]3C(=O)N[C@]4(C(=O)NS(=O)(=O)N(C)C)C[C@H]4/C=C\CCCCC[C@H](NC(=O)OC(C)(C)C)C(=O)N3C2)nc2c(-c3nc(Cc4ccc(OC(F)(F)F)cc4)cs3)cccc21	0.01 to 0.1 µM
CC(C)n1c(O[C@@H]2C[C@H]3C(=O)N[C@]4(C(=O)NS(=O)(=O)N(C)C)C[C@H]4/C=C\CCCCC[C@H](NC(=O)OC(C)(C)C)C(=O)N3C2)nc2c(-c3nc(Cc4cccc(OC(F)(F)F)c4)cs3)cccc21	0.01 to 0.1 µM

* * *

- System: hepatitis C replicon
- METHOD_NOTES: hepatitis C replicon EC50 assay
- Format: cell-based
- CONDITION_CONTEXT: Hepatitis C virus; hepatitis C replicon; read-out: EC50
pEC50: −log10 of the molar value.
In this section we review reported pEC50 values for a set of molecules.
PARAMETER_MEASURED: pEC50

SMILES_STR	TEST_RESULT
Cc1nc2cccc(-c3nc(C4CCCCC4)cs3)c2nc1O[C@@H]1C[C@H]2C(=O)N[C@]3(C(=O)NS(=O)(=O)C4(C)CC4)C[C@H]3/C=C\CCCCC[C@H](NC(=O)OC(C)(C)C)C(=O)N2C1	> 8.00
CC(C)n1c(O[C@@H]2C[C@H]3C(=O)N[C@]4(C(=O)NS(=O)(=O)C5(C)CC5)C[C@H]4/C=C\CCCCC[C@H](NC(=O)OC(C)(C)C)C(=O)N3C2)nc2c(-c3nc(Cc4cccc(C(F)(F)F)c4)cs3)cccc21	7.00 to 8.00
COc1ccccc1-c1csc(-c2cccc3c2nc(O[C@@H]2C[C@H]4C(=O)N[C@]5(C(=O)NS(=O)(=O)C6(C)CC6)C[C@H]5/C=C\CCCCC[C@H](NC(=O)OC(C)(C)C)C(=O)N4C2)n3C(C)C)n1	> 8.00
CC(C)n1c(O[C@@H]2C[C@H]3C(=O)N[C@]4(C(=O)NS(=O)(=O)N(C)C)C[C@H]4/C=C\CCCCC[C@H](NC(=O)OC(C)(C)C)C(=O)N3C2)nc2c(-c3csc(-c4ccc(F)c(F)c4)n3)cccc21	< 7.00
CC(C)n1c(O[C@@H]2C[C@H]3C(=O)N[C@]4(C(=O)NS(=O)(=O)N(C)C)C[C@H]4/C=C\CCCCC[C@H](NC(=O)OC(C)(C)C)C(=O)N3C2)nc2c(-c3nc(-c4ccc(Cl)c(Cl)c4)cs3)cccc21	< 7.00
CC(C)n1c(O[C@@H]2C[C@H]3C(=O)N[C@]4(C(=O)NS(=O)(=O)N(C)C)C[C@H]4/C=C\CCCCC[C@H](NC(=O)OC(C)(C)C)C(=O)N3C2)nc2c(-c3cncc(N4CCCC4)n3)cccc21	> 8.00
CC(C)n1c(O[C@@H]2C[C@H]3C(=O)N[C@]4(C(=O)NS(=O)(=O)C5(C)CC5)C[C@H]4/C=C\CCCCC[C@H](NC(=O)OC(C)(C)C)C(=O)N3C2)nc2c(-c3nc(-c4ccc5c(c4)OCCO5)cs3)cccc21	> 8.00
COc1cccc(Cc2csc(-c3cccc4c3nc(O[C@@H]3C[C@H]5C(=O)N[C@]6(C(=O)NS(=O)(=O)N(C)C)C[C@H]6/C=C\CCCCC[C@H](NC(=O)OC(C)(C)C)C(=O)N5C3)n4C(C)C)n2)c1	> 8.00
CC(C)n1c(O[C@@H]2C[C@H]3C(=O)N[C@]4(C(=O)NS(=O)(=O)C5(C)CC5)C[C@H]4/C=C\CCCCC[C@H](N)C(=O)N3C2)nc2c(-c3nc(C(F)(F)F)cs3)cccc21	7.00 to 8.00
